- Test system: OVCAR-5 ovarian
- Assay Comment: NCI-60 one-dose screen, 48 h (100 = growth as untreated, 0 = no growth, -100 = all killed)
- Recorded Conditions: 10 µM unless noted
About 83,000 compounds went through this panel and 20% of them were active in at least one assay; those are over-represented in the sample as a whole. Calls of active or inactive are those of the source. How the source made its calls: active means growth percent below 10; inactive means the rest.

{"Smiles Data": "O=[N+]([O-])c1ccc(Sc2nc(Cl)nc(NC3CCCC3)n2)cc1", "growth": "-90.5% [100 µM] (active)"}
{"Smiles Data": "N#Cc1ccc(-c2ccc(-c3cccs3)o2)cc1F", "growth": "101% (inactive)"}
{"Smiles Data": "COc1ccc2nc(C)cc(Sc3nc4ccccc4s3)c2c1", "growth": "61.2% (inactive)"}

* * *

- System: MOLT-4 leukemia
- Assay Comment: NCI-60 one-dose screen, 48 h
- Recorded Conditions: 10 µM unless noted
- Experimental: Growth inhibition of the MOLT-4 human tumor cell line is measured as a screen for anti-cancer activity. Cells are grown in 96 well plates and exposed to the test compound for 48 hours. Compounds are tested at a single concentration, which is 10^-5 M for most compounds. The reported endpoint is percent growth (GI% or GIPRCNT), where numbers from 0 - 100% represent growth inhibition, and numbers from -100% - 0 represent cell death. For example, a value of 40 represents 60% growth inhibition. […]
This is part of a sample that, as a whole, favours compounds with a hit. Of some 83,000 tested, about 20% had one in any assay. Calls of active or inactive are those of the source. How the source made its calls: active means growth percent below 10; inactive means the rest.
Outcome codes: active, inactive

{"Compound": "S=C(Cc1ccccc1)N1CCN(c2ccccc2Cl)CC1", "Label Value": "inactive"}
{"Compound": "O=C(N/N=C/c1ccc([N+](=O)[O-])cc1)c1ccccc1Nc1ccnc(C(F)(F)F)c1", "Label Value": "inactive"}
{"Compound": "O=C(/C=C/c1ccco1)c1ccccc1O", "Label Value": "inactive"}
{"Compound": "CCN(CC)Cc1cc(Nc2ccnc3ccc(OC)cc23)ccc1O", "Label Value": "inactive"}
{"Compound": "C=C(COC(C)=O)[C@H]1CC/C(C)=C/CC/C(C)=C/CC[C@@]2(C)O[C@H]2C1", "Label Value": "inactive"}
{"Compound": "COc1ccc(-c2nn(C(=O)NCCN(C)C)cc2-c2ccncc2)cc1Cl", "Label Value": "inactive"}
{"Compound": "ClCc1c(Cl)c(Cl)c(Cl)c(CCl)c1Cl", "Label Value": "inactive"}
{"Compound": "c1ccc(-c2nnn(-c3ccccc3)n2)cc1", "Label Value": "inactive"}
{"Compound": "CNC1=C([N+](=O)[O-])C(c2ccccc2O)C(C#N)=C(c2cccs2)O1 (stereo unspecified)", "Label Value": "inactive"}
{"Compound": "CCNCCCn1c2c(c3ccc(Cl)cc3c1=O)C(=O)c1cc(OC)cnc1-2", "Label Value": "active"}
{"Compound": "O=C(O)CSc1ccc(NCc2oc(CO)cc(=O)c2O)cc1", "Label Value": "inactive"}
{"Compound": "COc1ccccc1CNCCCN1C(=O)c2ccc3c4c(ccc(c24)C1=O)C(=O)N(CCCOCCCCOCCCN)C3=O", "Label Value": "active"}
{"Compound": "Fc1ccc(-c2cnc3nonc3n2)c(F)c1", "Label Value": "inactive"}
{"Compound": "COc1cc(Nc2ncccc2/C=C/C(=O)c2cc(OC)c(OC)c(OC)c2)cc(OC)c1OC", "Label Value": "inactive"}
{"Compound": "CCCCCCCCCCCCC1CCC(=O)O1 (stereo unspecified)", "Label Value": "inactive"}
{"Compound": "COc1cc([N+](=O)[O-])cc(OC)c1OC", "Label Value": "inactive"}
{"Compound": "CCCCCN(CCCCC)C(=O)C(CCC(=O)O)NC(=O)c1ccc(Cl)c(Cl)c1 (stereo unspecified)", "Label Value": "inactive"}
{"Compound": "CCCCc1nc(Cl)c(C2CC(c3ccc(S(N)(=O)=O)cc3)=NN2c2ccc(C#N)cc2)[nH]1 (stereo unspecified)", "Label Value": "inactive"}
{"Compound": "C(=Nc1ccc(-c2ccc(N=Cc3ccccc3)cc2)cc1)c1ccccc1", "Label Value": "inactive"}
{"Compound": "NC(=S)N1N=C(c2ccc(Cl)cc2)CC1c1cc2ccccc2[nH]c1=O (stereo unspecified)", "Label Value": "inactive"}
{"Compound": "Nc1nc(N)c2cc(NCc3ccc(Cl)c(Cl)c3)ccc2n1", "Label Value": "active"}
{"Compound": "O=C1N(Cc2ccccc2Cl)c2ccccc2C12NN=C(c1ccccc1)S2 (stereo unspecified)", "Label Value": "inactive"}
{"Compound": "CS(=O)(=O)c1ccc(C(=O)N/N=C/c2ccccc2O)cc1", "Label Value": "active"}
{"Compound": "Nc1ccc(C2=NNC(=O)Cc3cc4c(cc32)OCCO4)cc1Cl", "Label Value": "inactive"}
{"Compound": "Cc1ccccc1Nc1n[nH]c(Cc2ccccc2)n1", "Label Value": "inactive"}
{"Compound": "CS(=O)(=O)c1ccc(Cl)c([N+](=O)[O-])c1", "Label Value": "inactive"}
{"Compound": "O=C(Nc1ccc(Br)cc1)Nc1cccc(Br)c1", "Label Value": "active"}
{"Compound": "c1cc2c(cc1-c1cnc3nonc3n1)OCO2", "Label Value": "inactive"}
{"Compound": "Cc1ccc(C)c2c1SC1=NNC(Oc3ccc(Cl)cc3)=C(C#N)C(=N)N12", "Label Value": "inactive"}
{"Compound": "O=C1SCN(Cc2ccccc2)CN1Cc1ccccc1", "Label Value": "inactive"}
{"Compound": "CCN1C(=O)N(CC)C2C1NC(=O)N2/N=C/C=C/c1ccccc1 (stereo unspecified)", "Label Value": "inactive"}

* * *

- System: SF-539 CNS
- Assay Comment: NCI-60 one-dose screen, 48 h (100 = growth as untreated, 0 = no growth, -100 = all killed)
- Recorded Conditions: 10 µM unless noted
The panel holds about 83,000 compounds, 20% with a hit somewhere; the sample as a whole holds those more often.
Readings of growth for the listed compounds

{"Compound": "NC(N)=NC1CCCCC1", "growth [%]": 105}
{"Compound": "CCN1C(=O)/C(=C/N2N=C(c3ccc(Cl)cc3)CC2c2ccc(OC)cc2)SC1=S (stereo unspecified)", "growth [%]": 88}
{"Compound": "Cc1c(C(=O)CCl)c(=O)n(-c2ccccc2)n1C", "growth [%]": 71.7}
{"Compound": "COc1ccccc1CNCCCN1C(=O)c2ccc3c4c(ccc(c24)C1=O)C(=O)N(CCCCNCCCN)C3=O", "growth [%]": -61.1}
{"Compound": "O=C1Nc2ccc(Cl)cc2/C1=C\\c1c(-c2ccc(F)cc2)nc2ccccn12", "growth [%]": -31.2}
{"Compound": "CN(C)CC(=O)c1ccc2cc(Br)c3ccccc3c2c1", "growth [%]": 79.5}
{"Compound": "COc1ccccc1CNCCCN1C(=O)c2ccc3c4c(ccc(c24)C1=O)C(=O)N(CCCNCCCN)C3=O", "growth [%]": 8.47}
{"Compound": "COc1cc(NCC(O)CN(CC(C)C)CC(C)C)c2ncccc2c1 (stereo unspecified)", "growth [%]": 102}
{"Compound": "Cc1cc(-c2ccc(N=Nc3c(S(=O)(=O)O)cc4cc(S(=O)(=O)O)cc(O)c4c3O)c(C)c2)ccc1N=Nc1c(S(=O)(=O)O)cc2cc(S(=O)(=O)O)cc(O)c2c1O", "growth [%]": 101}
{"Compound": "CC(C)(C)OC(=O)N1CCCN(CCNc2nccc(-c3c(-c4cccc(O)c4)nc4sccn34)n2)S1(=O)=O", "growth [%]": 104}
{"Compound": "COc1cc(Cl)cc(-c2nn(C(=O)NCCN3CCOCC3)cc2-c2ccncc2)c1", "growth [%]": 68.4}

* * *

Readings of growth for the listed molecules
- System: SW-620 colon
- Assay Comment: NCI-60 one-dose screen, 48 h (100 = growth as untreated, 0 = no growth, -100 = all killed)
- Recorded Conditions: 10 µM unless noted
- Description: Growth inhibition of the SW-620 human tumor cell line is measured as a screen for anti-cancer activity. Cells are grown in 96 well plates and exposed to the test compound for 48 hours. Compounds are tested at a single concentration, which is 10^-5 M for most compounds. The reported endpoint is percent growth (GI% or GIPRCNT), where numbers from 0 - 100% represent growth inhibition, and numbers from -100% - 0 represent cell death. For example, a value of 40 represents 60% growth inhibition. […]
This is part of a sample that, as a whole, favours compounds with a hit. Of some 83,000 tested, about 20% had one in any assay.
Measured Attribute: growth (%)

{"Molecule": "N#Cc1ccc(-c2ccc(-c3cccs3)o2)cc1F", "Value": 98.5}
{"Molecule": "COc1ccc(CNc2c3ccccc3nc3ccc(OC)cc23)cc1", "Value": 15.8}
{"Molecule": "COc1cc(-c2nn(C(=O)NCCN3CCN(C)CC3)cc2-c2ccncc2)ccc1Cl", "Value": 111}
{"Molecule": "COc1ccc(-c2nc(SCCC(C)C)nc(Nc3ccc(C(=O)O)cc3)c2C#N)cc1", "Value": 101}
{"Molecule": "FC(F)(F)c1nn[nH]n1", "Value": 112}
{"Molecule": "CCOC(=O)c1ccc(NC(=O)CSC(N)=O)cc1", "Value": 103}
{"Molecule": "O=C(N/N=C\\c1cc(Br)ccc1O)c1ccncc1", "Value": 37.7}
{"Molecule": "CCCCCCCCCCCCC1CCC(=O)O1 (stereo unspecified)", "Value": 90.3}
{"Molecule": "CNCCCn1c2c(c3ccc(Cl)cc3c1=O)C(=O)c1cc(OC)cnc1-2", "Value": -63.6}
{"Molecule": "Cc1ccc2c(C)c3c(ccc4ccccc43)c[n+]2c1", "Value": 83.1}
{"Molecule": "CC(C)N(C(=S)SSC(=S)N(C(C)C)C(C)C)C(C)C", "Value": 105}
